These data points were gathered from ChEMBL document CHEMBL3763108.

Biological target: Cholinesterases; ACHE & BCHE (Homo sapiens) (UniProt P06276+P22303)
Sequence (P06276 whole entry, looked up): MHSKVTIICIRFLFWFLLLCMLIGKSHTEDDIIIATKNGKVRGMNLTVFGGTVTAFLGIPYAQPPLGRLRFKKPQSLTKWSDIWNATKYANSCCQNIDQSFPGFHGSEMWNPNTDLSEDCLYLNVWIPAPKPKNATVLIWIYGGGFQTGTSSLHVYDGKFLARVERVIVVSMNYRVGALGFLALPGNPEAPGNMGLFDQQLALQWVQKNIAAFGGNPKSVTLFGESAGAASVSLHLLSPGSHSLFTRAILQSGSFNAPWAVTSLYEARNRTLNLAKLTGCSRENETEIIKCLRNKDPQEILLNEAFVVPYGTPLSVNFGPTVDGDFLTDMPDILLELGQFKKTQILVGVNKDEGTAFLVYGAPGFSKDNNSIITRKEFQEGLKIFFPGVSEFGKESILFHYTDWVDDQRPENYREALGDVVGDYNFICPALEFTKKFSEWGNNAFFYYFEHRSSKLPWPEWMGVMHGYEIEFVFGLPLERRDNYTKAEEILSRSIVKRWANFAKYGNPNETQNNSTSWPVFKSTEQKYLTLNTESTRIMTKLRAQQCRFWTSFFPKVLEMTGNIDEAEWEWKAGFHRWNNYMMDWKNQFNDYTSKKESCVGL
Sequence (P22303 whole entry, looked up): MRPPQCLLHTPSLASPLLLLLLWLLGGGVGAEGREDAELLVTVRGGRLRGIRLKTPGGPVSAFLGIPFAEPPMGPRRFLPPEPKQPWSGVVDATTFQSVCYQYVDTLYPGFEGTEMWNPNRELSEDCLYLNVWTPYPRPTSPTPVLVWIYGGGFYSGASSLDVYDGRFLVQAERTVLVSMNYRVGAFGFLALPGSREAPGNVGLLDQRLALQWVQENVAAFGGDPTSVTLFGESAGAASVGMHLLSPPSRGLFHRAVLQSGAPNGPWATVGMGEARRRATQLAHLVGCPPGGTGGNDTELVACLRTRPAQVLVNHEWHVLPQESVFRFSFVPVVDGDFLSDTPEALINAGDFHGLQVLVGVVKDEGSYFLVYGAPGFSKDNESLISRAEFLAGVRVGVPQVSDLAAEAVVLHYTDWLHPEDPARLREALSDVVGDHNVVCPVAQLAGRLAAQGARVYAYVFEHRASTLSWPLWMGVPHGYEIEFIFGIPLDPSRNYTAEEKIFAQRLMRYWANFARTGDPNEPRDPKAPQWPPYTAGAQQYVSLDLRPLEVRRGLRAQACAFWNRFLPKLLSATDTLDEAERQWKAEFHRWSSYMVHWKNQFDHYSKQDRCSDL
Experiment: Selectivity ratio of IC50 for AChE (unknown origin) to IC50 for BChE (unknown origin) by Ellman's kinetic method
Please assign false (0) whenever Ratio IC50 is at or above 0.2, and true (1) whenever it is below.

Below are worked cases with known answers.
CC1(C)CNC2=C([N+](=O)[O-])C3(C(=O)Nc4ccc(F)cc43)C(C#N)=C(N)N2C1 (stereo not drawn) = true (1)
N#CC1=C(N)N2CCNC2=C([N+](=O)[O-])C12C(=O)Nc1ccc([N+](=O)[O-])cc12 (stereo not drawn) = false (0)

Request: Could you please tell me whether Ratio IC50 recorded for N#CC1=C(N)N2CCNC2=C([N+](=O)[O-])C12C(=O)c1ccc(Br)c3c(Br)ccc2c13 (stereo not drawn) is less than 0.2?
Response: false (0)

Request: Hi there! Is Ratio IC50 for N#CC1=C(N)N(Cc2ccccc2)C(NCc2ccccc2)=C([N+](=O)[O-])C12C(=O)c1cccc3cccc2c13 (stereo not drawn) below 0.2, do you know?
Response: false (0)

Request: Lab note: Ratio IC50 threshold 0.2. Does this molecule come in strictly under it? Cc1ccc2c(c1)C1(C(=O)N2)C(C#N)=C(N)N2CCNC2=C1[N+](=O)[O-] (stereo not drawn)
Response: false (0)

Request: Dear reviewer, please state whether N#CC1=C(N)N2CCCNC2=C([N+](=O)[O-])C12C(=O)Nc1ccccc12 (stereo not drawn) has Ratio IC50 strictly beneath 0.2.
Response: true (1)

Request: Please let me know if N#CC1=C(N)N2CCCNC2=C([N+](=O)[O-])C12C(=O)c1ccc(Br)c3c(Br)ccc2c13 (stereo not drawn) shows Ratio IC50 below 0.2.
Response: false (0)
